Tested on: Staph. aureus 152 (pen. sens)
Experiment: MIC against veterinary bacteria in vitro
Settings: Staphylococcus aureus, 18 h
Item-by-item account of MIC
Reply numerically in µg/mL, unit not repeated.

C/C(=C\c1ncc(-c2ccc(S(=O)(=O)N(C)C)cc2)o1)C[C@@H]1OC[C@H](C[C@@H]2O[C@H]2[C@@H](C)[C@H](C)O)[C@@H](O)[C@H]1O 0.625
CSc1ccc(-c2cnc(/C=C(\C)C[C@@H]3OC[C@H](C[C@@H]4O[C@H]4[C@@H](C)[C@H](C)O)[C@@H](O)[C@H]3O)o2)cc1 0.625

Field MIC (entry C/C(=C\c1cc(C)on1)C[C@@H]1OC[C@H](C[C@@H]2O[C@H]2[C@@H](C)[C@H](C)O)[C@@H](O)[C@H]1O ) reads 2.5
